- Tested on: E. coli
- TEST_PROTOCOL: Biofilm formation inhibition, crystal violet reporter assay
- Assay type: cell-based
- PROTOCOL_CONDITIONS: Escherichia coli, 100 μM
Answer each item with its documented inhibition at 100 µM.
Reply numerically in %, unit not repeated.

Query: inhibition at 100 µM; subject: CCCCc1[nH]c(N)nc1CCCCCc1ccccc1
96.9

Another molecule to check: Cc1[nH]c(N)nc1CCCCCc1ccccc1
96.3

Another molecule to check: CCCc1[nH]c(N)nc1CCCCCc1ccccc1
95.8

Another molecule to check: CCCCCc1[nH]c(N)nc1CCCCCc1ccccc1
83

====

- System: L. anguillarum
- TEST_PROTOCOL: Dispersion of pre-formed biofilms
- Format: cell-based, Listonella anguillarum
- PROTOCOL_CONDITIONS: Vibrio anguillarum, read-out: EC50, 50% dispersion of a pre-formed biofilm
- Method: The ability of 15 and 19 to disperse pre-formed biofilms was also determined for all of the aforementioned bacterial strains (both marine and terrestrial). To quantify this effect, the EC50 value of each compound against each bacterial strain was determined, where EC50 is defined as the concentration of compound that elicits 50% dispersion of a pre-formed biofilm. Both compounds are able to disperse pre-formed biofilms at low micromolar concentrations. […]
MEASURED_PARAMETER: EC50 (µM)
Reply numerically in µM, unit not repeated.

Query: EC50; subject: CCCCCc1[nH]c(N)nc1CCCCCc1ccccc1 [Compound 15]
14.7

Another compound to check: CCCCCCc1[nH]c(N)nc1CCCCCc1ccccc1 [Compound 19]
13.8

====

Answer each item with its documented MIC.
- Test system: MRSA
- TEST_PROTOCOL: Broth microdilution MIC
- Format: cell-based, methicillin-resistant S. aureus
- PROTOCOL_CONDITIONS: Staphylococcus aureus
Reply numerically in µg/mL, unit not repeated.

Query: MIC; subject: CCc1[nH]c(N)nc1CCCCCc1ccccc1
8

Another compound to check: CCCCc1[nH]c(N)nc1CCCCCc1ccccc1
2

Another compound to check: CCCc1[nH]c(N)nc1CCCCCc1ccccc1
4

Another compound to check: Cc1[nH]c(N)nc1CCCCCc1ccccc1
4

Another compound to check: CCCCCCc1[nH]c(N)nc1CCCCCc1ccccc1
1

Another compound to check: CCCCCc1[nH]c(N)nc1CCCCCc1ccccc1
1

====

- System: S. epidermidis
- TEST_PROTOCOL: Broth microdilution MIC
- Type: cell-based
- PROTOCOL_CONDITIONS: Staphylococcus epidermidis, read-out: MIC
Assign labels as follows, please: 1.0 for MIC below 0.5 mg/L; 0.0 for MIC equal to or exceeding 0.5 mg/L.

Say whether its MIC is strictly beneath 0.5 mg/L. Entry: CCCCc1[nH]c(N)nc1CCCCCc1ccccc1
1.0

Another molecule to check: CCCCCCc1c[nH]c(N)n1.Cl
1.0

Another molecule to check: CCc1[nH]c(N)nc1CCCCCc1ccccc1
0.0

Another molecule to check: Cc1[nH]c(N)nc1CCCCCc1ccccc1
0.0

Another molecule to check: CCCCCc1[nH]c(N)nc1CCCCCc1ccccc1
1.0

====

- Test system: MDRAB
Answer each item with its documented MIC.
Reply numerically in µg/mL, unit not repeated.

Query: MIC; subject: CCc1[nH]c(N)nc1CCCCCc1ccccc1
32

Another molecule to check: Cc1[nH]c(N)nc1CCCCCc1ccccc1
8

Another molecule to check: CCCc1[nH]c(N)nc1CCCCCc1ccccc1
8

Another molecule to check: CCCCCCc1[nH]c(N)nc1CCCCCc1ccccc1
4

Another molecule to check: CCCCc1[nH]c(N)nc1CCCCCc1ccccc1
4

Another molecule to check: CCCCCc1[nH]c(N)nc1CCCCCc1ccccc1
2
